- Measured on: DIAPH2 (Homo sapiens)
- Sequence (O60879 553-1096 isoform O60879-2): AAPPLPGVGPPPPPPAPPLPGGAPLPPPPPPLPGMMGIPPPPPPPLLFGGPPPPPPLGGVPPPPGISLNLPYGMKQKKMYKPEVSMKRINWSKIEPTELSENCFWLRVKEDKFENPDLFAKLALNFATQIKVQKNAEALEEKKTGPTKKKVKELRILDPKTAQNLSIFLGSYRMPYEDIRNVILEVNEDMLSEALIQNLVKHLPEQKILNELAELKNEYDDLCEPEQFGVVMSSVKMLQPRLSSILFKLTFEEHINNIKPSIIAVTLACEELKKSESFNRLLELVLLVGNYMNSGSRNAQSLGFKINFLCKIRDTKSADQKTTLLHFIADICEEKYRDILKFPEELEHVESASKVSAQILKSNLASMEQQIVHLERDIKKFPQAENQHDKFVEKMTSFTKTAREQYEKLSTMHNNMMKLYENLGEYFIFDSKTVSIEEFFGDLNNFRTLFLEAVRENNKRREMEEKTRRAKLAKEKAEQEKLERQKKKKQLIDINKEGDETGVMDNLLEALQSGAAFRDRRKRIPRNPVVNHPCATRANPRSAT
Label Y when IC50 is strictly below 3 µM; otherwise label N.

Consider the worked cases shown below.
• O=C1C(=Cc2ccco2)C(=O)N(c2cccc(Br)c2)C(=S)N1c1ccccc1 [Compound 4] = Y
• O=C1NC(=O)N(c2cccc(Br)c2)C(=O)C1=Cc1ccco1 [Compound 5] = N
• O=C1NC(=S)N(c2ccc(Br)cc2)C(=O)C1=Cc1ccc(Cl)o1 [Compound 14] = N

Now look at this one.
Find out if reported IC50 for COc1ccc(N2C(=O)C(=Cc3ccc(Cl)o3)C(=O)NC2=S)cc1 [Compound 12] is less than 3 µM
Y

* * *

- Measured on: UniProt Q8IVF7
- Sequence (Q8IVF7 481-1028): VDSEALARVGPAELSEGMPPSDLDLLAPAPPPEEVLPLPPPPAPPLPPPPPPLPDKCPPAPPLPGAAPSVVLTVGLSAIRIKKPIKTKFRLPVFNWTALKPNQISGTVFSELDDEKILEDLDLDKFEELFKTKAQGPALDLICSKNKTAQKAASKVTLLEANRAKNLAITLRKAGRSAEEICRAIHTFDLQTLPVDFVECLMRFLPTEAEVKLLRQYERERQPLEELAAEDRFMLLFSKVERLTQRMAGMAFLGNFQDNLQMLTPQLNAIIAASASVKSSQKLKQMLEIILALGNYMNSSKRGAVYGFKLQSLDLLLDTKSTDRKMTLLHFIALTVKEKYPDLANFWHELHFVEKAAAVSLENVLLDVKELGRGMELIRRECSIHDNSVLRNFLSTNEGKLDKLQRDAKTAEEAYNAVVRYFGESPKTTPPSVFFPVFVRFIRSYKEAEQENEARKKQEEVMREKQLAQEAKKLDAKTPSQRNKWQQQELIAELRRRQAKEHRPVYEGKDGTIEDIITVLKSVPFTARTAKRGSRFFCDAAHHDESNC
# pIC50 values compiled below
pIC50 (log units): -log10 of the concentration in mol/L.

* O=C1NC(=S)N(c2cccc(Br)c2)C(=O)C1=Cc1ccco1 [Compound 1, reference compound] | 4.68

// switching to the query molecule
Returns the measured pIC50 for the input molecule. Input: `COc1ccc(N2C(=O)C(=Cc3ccc(Br)o3)C(=O)NC2=S)cc1`
5.15

* * *

Notes on IC50 obtained with INF2 (Homo sapiens).
Sequence (Q27J81 469-1249): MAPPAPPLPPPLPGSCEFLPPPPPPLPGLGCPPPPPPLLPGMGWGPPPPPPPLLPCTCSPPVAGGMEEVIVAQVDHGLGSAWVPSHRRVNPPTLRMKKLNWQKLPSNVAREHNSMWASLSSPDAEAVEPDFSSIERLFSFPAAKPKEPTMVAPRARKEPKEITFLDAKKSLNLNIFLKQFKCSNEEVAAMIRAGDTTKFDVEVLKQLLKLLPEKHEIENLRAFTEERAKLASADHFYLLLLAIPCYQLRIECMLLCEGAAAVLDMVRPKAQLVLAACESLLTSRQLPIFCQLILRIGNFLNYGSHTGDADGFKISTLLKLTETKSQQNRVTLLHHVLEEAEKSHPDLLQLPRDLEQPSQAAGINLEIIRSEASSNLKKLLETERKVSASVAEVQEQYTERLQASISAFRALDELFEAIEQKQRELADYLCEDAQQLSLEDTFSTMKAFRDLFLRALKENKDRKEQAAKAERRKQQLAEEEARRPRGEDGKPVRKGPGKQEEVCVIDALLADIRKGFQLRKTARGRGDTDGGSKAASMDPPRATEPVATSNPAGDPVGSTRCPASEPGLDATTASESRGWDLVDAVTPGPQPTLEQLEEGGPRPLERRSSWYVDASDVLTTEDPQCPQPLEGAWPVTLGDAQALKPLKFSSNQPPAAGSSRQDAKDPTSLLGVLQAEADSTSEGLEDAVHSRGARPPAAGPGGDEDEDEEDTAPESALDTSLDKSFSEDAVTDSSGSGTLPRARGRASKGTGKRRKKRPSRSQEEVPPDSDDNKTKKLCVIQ
Give the quantity in µM, number only.

- COc1ccc(N2C(=O)C(=Cc3cc(Br)co3)C(=O)NC2=S)cc1: 6
- COc1ccc(N2C(=O)C(=Cc3ccc(Cl)o3)C(=O)NC2=S)cc1: 2

Would you kindly share the measured IC50 for `O=C1NC(=S)N(c2ccc(Br)cc2)C(=O)C1=Cc1ccc(Cl)o1` ?
8

* * *

This section lists IC50 readings for INF2 (Homo sapiens).
Reply with just the number (in µM).

Here's what some known entries look like.
- COc1ccc(N2C(=O)C(=Cc3ccc(Br)o3)C(=O)NC2=S)cc1: 3
- O=C1NC(=S)N(c2ccc(Br)cc2)C(=O)C1=Cc1ccco1: 7
- O=C1NC(=S)N(c2cccc(Br)c2)C(=O)C1=Cc1ccco1 [Compound 1, reference compound]: 10

Which value of IC50 has been reported for `COc1ccc(N2C(=O)C(=Cc3ccco3)C(=O)NC2=S)cc1` in the records?
37

Another molecule to look at: `CN1C(=O)C(=Cc2ccco2)C(=O)N(c2cccc(Br)c2)C1=S`
5

Now try `O=C1NC(=S)N(c2ccccc2)C(=O)C1=Cc1ccco1` .
30

* * *

- Measured on: FMN2 (Homo sapiens)
- Sequence (Q9NZ56 1192-1722): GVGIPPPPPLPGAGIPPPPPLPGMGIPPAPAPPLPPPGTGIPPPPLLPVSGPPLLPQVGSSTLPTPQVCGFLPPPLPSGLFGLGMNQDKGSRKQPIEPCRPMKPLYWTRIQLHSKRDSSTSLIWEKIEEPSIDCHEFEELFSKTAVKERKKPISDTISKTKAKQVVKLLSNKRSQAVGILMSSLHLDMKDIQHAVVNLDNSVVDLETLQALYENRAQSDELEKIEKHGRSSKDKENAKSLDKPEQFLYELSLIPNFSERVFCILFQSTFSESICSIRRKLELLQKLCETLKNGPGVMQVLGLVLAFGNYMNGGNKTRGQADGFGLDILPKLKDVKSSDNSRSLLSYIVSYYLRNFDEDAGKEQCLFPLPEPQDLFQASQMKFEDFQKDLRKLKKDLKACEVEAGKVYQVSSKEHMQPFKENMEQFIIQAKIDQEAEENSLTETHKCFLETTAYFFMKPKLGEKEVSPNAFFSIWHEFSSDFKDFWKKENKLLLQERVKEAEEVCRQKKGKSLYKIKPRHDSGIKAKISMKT
Simple rule here: IC50 less than 10 µM is TRUE, otherwise FALSE.

* O=C1NC(=S)N(c2ccc(Br)cc2)C(=O)C1=Cc1ccco1 [Compound 8] | TRUE
* COc1ccc(N2C(=O)C(=Cc3ccc(Cl)o3)C(=O)NC2=S)cc1 [Compound 12] | TRUE
* O=C1NC(=S)N(c2cccc(Br)c2)C(=O)C1=Cc1ccc[nH]1 [Compound 6] | FALSE
* O=C1C(=Cc2ccco2)C(=O)N(c2cccc(Br)c2)C(=S)N1c1ccccc1 [Compound 4] | TRUE
* Cc1ccc(C=C2C(=O)NC(=S)N(c3cccc(Br)c3)C2=O)o1 [Compound 17] | FALSE

A record lists COc1ccc(N2C(=O)C(=Cc3ccco3)C(=O)NC2=S)cc1 [Compound 10] . Is its IC50 below 10 µM?
FALSE

Then what about the molecule CCN1C(=O)C(=Cc2ccco2)C(=O)N(c2cccc(Br)c2)C1=S [Compound 3] ?
FALSE

* * *

- System: human formins
- Assay details: pyrene-actin polymerization assay, panel of human formin FFC fragments
- Type: biochemical
- Stated conditions: five formin FFC fragments (DIAPH1, DIAPH2, INF2, FMNL3, FMN2)
Property name: inhibitory activity against formins tested (in words)

* O=C1C(=Cc2ccco2)C(=O)N(c2cccc(Br)c2)C(=S)N1c1ccccc1 | well tolerated
* O=C1NC(=S)N(c2cccc(Br)c2)C(=O)C1=Cc1ccc(Br)o1 | well tolerated
